// provenance: paper PMC5515408

- target-system: MAX:MAX (p21) (human, UniProt P61244-2 1-151)
- Sequence (P61244 other isoform, or with tags, fused parts or gaps): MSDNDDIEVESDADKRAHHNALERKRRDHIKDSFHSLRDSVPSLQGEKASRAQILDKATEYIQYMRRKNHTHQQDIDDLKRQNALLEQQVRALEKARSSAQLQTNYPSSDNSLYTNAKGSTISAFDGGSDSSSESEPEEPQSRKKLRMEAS
- procedure-text: protein-binding microarray (anti-MAX antibody); PBM: 15 mM Tris-HCl pH 7.5, 100 mM KCl, 0.075% NP40, 7.5 mM beta-mercaptoethanol, 375 ng/ul BSA, 8 ng/ul poly(dA-dT):(dA-dT), 550 ng complex, 60 min, room tempe; high values mean tight binding
- experimental-context: protein: recombinant; tags: 6xHis; chain copies: 2; label: 3' end of printed strand (linker) attached to glass slide; dsDNA, one strand shown
In all, about 4,500 sequences were measured (“log2 normalized fluorescence”: median about -0.34, highest 2% from about 3.3 on). This is one part of a sample in which the highest values are shown more often than they occur.
property-measured: binding signal

1. CCGGCTGACACGTGGGTTTAATAGCTAAGATTACTATATCGACG | 3.39 log2 normalized fluorescence
2. CCGGCTCCCACCTGGTATTAATAGCTAAGATTACTATATCGACG | 2.61 log2 normalized fluorescence
3. CCGGCTGACACGTGGCGTTAATAGCTAAGATTACTATATCGACG | 3.2 log2 normalized fluorescence
4. CCGGCCTCCACGTGGTATTAATAGCTAAGATTACTATATCGACG | 2.94 log2 normalized fluorescence
5. CCGGCTGACGTGTGGTTTTAATAGCTAAGATTACTATATCGACG | 1.65 log2 normalized fluorescence
6. CCGGCTGATAAGTGGTATTAATAGCTAAGATTACTATATCGACG | -0.651 log2 normalized fluorescence
7. CCGGCTGACCCGTGGTATTAATAGCTAAGATTACTATATCGACG | 2.38 log2 normalized fluorescence
8. CCGGCTATTACGTGGTATTAATAGCTAAGATTACTATATCGACG | 1.27 log2 normalized fluorescence
9. CCGGCTGAGATGGAGTATTAATAGCTAAGATTACTATATCGACG | -0.522 log2 normalized fluorescence
10. CCGGCTGAGACTCCGTATTAATAGCTAAGATTACTATATCGACG | -0.692 log2 normalized fluorescence
11. CCGGCGCCCACGTGGTATTAATAGCTAAGATTACTATATCGACG | 3.43 log2 normalized fluorescence
12. CCGGCTAAGACGTGGTATTAATAGCTAAGATTACTATATCGACG | 1.75 log2 normalized fluorescence
